- system.tested: human TLR9 (Homo sapiens)
- Sequence (Q9NR96 26-1032): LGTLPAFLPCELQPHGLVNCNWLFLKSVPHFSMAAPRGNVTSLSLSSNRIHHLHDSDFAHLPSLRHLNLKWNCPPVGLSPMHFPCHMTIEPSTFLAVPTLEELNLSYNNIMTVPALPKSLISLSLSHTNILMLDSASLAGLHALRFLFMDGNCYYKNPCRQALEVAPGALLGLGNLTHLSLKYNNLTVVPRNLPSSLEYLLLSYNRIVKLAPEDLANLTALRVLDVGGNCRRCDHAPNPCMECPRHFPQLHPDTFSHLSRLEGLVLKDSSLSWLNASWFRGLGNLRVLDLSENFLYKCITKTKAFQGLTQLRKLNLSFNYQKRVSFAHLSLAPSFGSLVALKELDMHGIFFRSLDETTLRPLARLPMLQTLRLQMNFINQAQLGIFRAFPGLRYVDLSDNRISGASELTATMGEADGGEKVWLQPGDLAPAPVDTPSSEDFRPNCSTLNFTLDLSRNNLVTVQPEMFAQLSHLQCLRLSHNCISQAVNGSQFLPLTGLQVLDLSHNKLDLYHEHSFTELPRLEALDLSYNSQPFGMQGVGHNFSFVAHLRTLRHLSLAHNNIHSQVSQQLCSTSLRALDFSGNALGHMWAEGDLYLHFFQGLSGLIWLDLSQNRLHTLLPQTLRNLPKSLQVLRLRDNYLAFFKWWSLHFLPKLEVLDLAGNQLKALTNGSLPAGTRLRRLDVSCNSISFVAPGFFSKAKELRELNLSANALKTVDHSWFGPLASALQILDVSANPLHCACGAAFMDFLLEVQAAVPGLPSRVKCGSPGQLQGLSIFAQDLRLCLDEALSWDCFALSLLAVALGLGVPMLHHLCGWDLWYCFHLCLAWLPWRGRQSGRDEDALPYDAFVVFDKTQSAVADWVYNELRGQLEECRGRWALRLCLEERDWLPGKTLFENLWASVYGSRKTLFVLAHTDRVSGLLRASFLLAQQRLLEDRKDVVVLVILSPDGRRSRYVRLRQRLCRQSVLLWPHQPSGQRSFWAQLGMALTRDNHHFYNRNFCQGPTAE
- test: HEK293-Blue-hTLR-9 cells assay
- recorded.conditions: HEK293-Blue-hTLR9 cells, ODN2006 stimulation, 20 hrs, SEAP reporter; read-out: HEK/hTLR9 IC50
pIC50: −log10 of the molar value.
experimental.endpoint: pIC50

{"compound": "[2H]c1ccc2c(N3C[C@@H](C)N4Cc5cc(N6CC7(CNCCO7)C6)ccc5[C@H]4C3)ccc(C#N)c2n1 [Example 90]", "test.result": 6.79}
{"compound": "C[C@@H]1CN(c2ccc(C#N)c3ncccc23)C[C@@H]2c3ccc(N4CCOCC(N)C4)cc3CN12 (stereo partly shown) [Example 54]", "test.result": 7.20}
{"compound": "C[C@@H]1CN(c2ccc(C#N)c3ncccc23)C[C@@H]2c3ccc(N4C[C@@H](F)[C@@H](N)C4)cc3CN12 [Example 46]", "test.result": 6.84}
{"compound": "C[C@H]1CN(c2ccc(C#N)c3ncccc23)C[C@H]2c3ccc(N4CCNCC4)cc3CN12 [Example 2]", "test.result": 6.90}
{"compound": "C[C@@H]1CN(c2ccc(C#N)n3nccc23)C[C@@H]2c3ccc(N4CCOC[C@H](N)C4)cc3CN12 [Example 101]", "test.result": 6.78}
{"compound": "C[C@@H]1CN(c2ccc(C#N)c3ncccc23)C[C@@H]2c3ccc(C4CNC4)cc3CN12 [Example 29]", "test.result": 7.36}
{"compound": "C[C@@H]1CN(c2ccc(C#N)n3nccc23)C[C@@H]2c3ccc(N4CCNCC4)cc3CN12 [Example 5]", "test.result": 6.88}
